tested on: HepG2; assay: cell viability relative to DMSO; higher = less toxic; settings: 72 h; 1000 nM
Reported values of cell viability for individual entries
Report the figure in % without appending any unit label.

These recorded examples may help you get a feel for the data.
compound	unit.tag	reported.measurement
C=C[C@@]1(C)CC(=O)[C@]2(O)[C@@]3(C)[C@@H](O)CCC(C)(C)[C@@H]3[C@H](O)[C@H](OC(C)=O)[C@@]2(C)O1	%	96.4
CCCCCCCCCC(=O)OC1(c2ccc(Cl)cc2)CCN(CCCC(=O)c2ccc(F)cc2)CC1 [haloperidol-decanoate]	%	112
COc1ccc2cc([C@H](C)C(=O)O)ccc2c1	%	100

*Q* Could you please provide reported cell viability for `CCCCCCCCCCCC(=O)O` ? Thanks!
*A* 96

*Q* Note down cell viability recorded for `[NH-]c1c[n+](N2CCOCC2)no1`
*A* 96.8

*Q* Tell me measured cell viability for CCC(=O)[C@@]1(C)[C@H](C)C[C@H]2[C@@H]3CCC4=CC(=O)C=C[C@]4(C)[C@H]3[C@@H](O)C[C@@]21C [rimexolone] please.
*A* 112

*Q* Note down cell viability recorded for NC[C@@H](O)CC(=O)O [aminohydroxybutyric-acid]
*A* 97.2

*Q* Identify cell viability associated with the compound CC(O)(C(=O)Nc1ccc(S(=O)(=O)c2ccccc2)cc1)C(F)(F)F (configuration not stated)
*A* 102

*Q* Provide one value: measured cell viability of `CCN(Cc1ccc(Cl)nc1)/C(=C/[N+](=O)[O-])NC`
*A* 97.5

*Q* Complete the entry with cell viability for `CN(C)c1cccc(Oc2cnc(Nc3cccc(O)c3)nc2)c1`
*A* 93

*Q* Read off the recorded cell viability for `C=CC1=C(C)c2cc3[nH]c(cc4nc(cc5[nH]c(cc1n2)c(C)c5CCC(=O)O)C(CCC(=O)O)=C4C)c(C)c3C=C`
*A* 94.2

*Q* Dear colleague, please send me the reported cell viability for CN[C@@H]1[C@@H](O)[C@@H](O[C@@H]2[C@@H](O)[C@H](O[C@H]3OC(CN)=CC[C@H]3N)[C@@H](N)C[C@H]2N)OC[C@]1(C)O [Sisomicin (sulfate)] when you can.
*A* 96.8

*Q* # return recorded cell viability for entry CN(C)CC[C@@]1(c2ccc(Cl)cc2)Cc2ccccc2C(=O)O1 (racemic) [AC-7954-(+/-)]
*A* 96.4

*Q* Tell me its cell viability given `O=C(O)c1cc(O)c2c(Cl)cc(Cl)cc2n1` as the entry.
*A* 96.5

====

The entries below are paired with their reported cell viability.
tested on: HepG2; test: cell viability relative to DMSO; higher = less toxic; conditions: 72 h; 10000 nM
Report the value in % with no unit label.

Example compounds with recorded cell viability:
compound	property.name	unit.tag	reported.measurement
CCC(C)(CN(C)C)OC(=O)c1ccccc1 (centres undefined)	cell viability	%	88.7
NCCc1ccccn1	cell viability	%	93.6
Cc1ccccc1C(=O)c1ccc(Nc2ccc(Br)cc2N)cc1Cl	cell viability	%	108
C1Cc2[nH]nc(-c3nn[nH]n3)c2C1	cell viability	%	95.4
O=C(O)c1cc(O)c2c(c1)C(=O)c1cccc(O)c1C2=O	cell viability	%	88.6

*Q* Give the reported value of cell viability for this record: `COc1cc2nc(N3CCN(C(=O)COc4c(OC)cccc4C(C)C)CC3)nc(N)c2cc1OC`
*A* 83.7

*Q* Find the measured cell viability of `CCNC(=O)NS(=O)(=O)c1sc(CC(C)C)cc1-c1ccc(Cn2c(-c3ccccc3)nc(OC)c2C=O)cc1` and report it.
*A* 102

*Q* Return cell viability for the following compound: `CCN(Cc1ccc(Cl)nc1)/C(=C/[N+](=O)[O-])NC`
*A* 108

*Q* Give the reported cell viability for this compound. `C[C@H](Nc1cc(-c2cnn(C)c2)cc(Nc2cnccn2)n1)c1ccc(F)cc1`
*A* 3.1

====

Recorded drug-induced phospholipidosis for the following compounds
tested on: A549-ACE2; assay: drug-induced phospholipidosis relative to tamoxifen; higher = more phospholipidosis; settings: 3.33333 µM; 24 h
Please state the figure in %; there is no need to write the unit.

compound	reported.measurement
CC(=O)OC[C@H]1O[C@@H]([S-])[C@H](OC(C)=O)[C@@H](OC(C)=O)[C@@H]1OC(C)=O.CCP(CC)CC.[Au+]	5.44
O=C(CCCN1CCC2(CC1)C(=O)NCN2c1ccccc1)c1ccc(F)cc1	0.56
O=C(c1ccc(OCCN2CCCCC2)cc1)c1c(-c2ccc(O)cc2)sc2cc(O)ccc12	10.1
CC/C(=C(\c1ccc(O)cc1)c1ccc(OCCN(C)C)cc1)c1ccccc1	51

Then there is this compound:
*Q* Input OCc1cc(C(O)CNCCCCCCOCCCCc2ccccc2)ccc1O (stereo not given) , output reported drug-induced phospholipidosis.
*A* 9.06

====

tested on: A549-ACE2 infected with SARS-CoV-2; assay: morphology score (similarity to uninfected cells); higher = more like uninfected cells; details: 3 µM; 24 h
Classify by measured morphology score: yes if it is equal to or exceeds 0.4, no if it is smaller.

Use these answered entries as a reference point.
compound	classification
COc1cc2c(cc1OC)-c1c/c(=N\c3c(C)cc(C)cc3C)n(C)c(=O)n1CC2	no
OCc1cc(C(O)CNCCCCCCOCCCCc2ccccc2)ccc1O (stereo unspecified)	no
COc1ccc(-c2cc3nccn3c(Nc3ncccc3C(N)=O)n2)cc1OC	yes
O=C(c1ccc(OCCN2CCCCC2)cc1)c1c(-c2ccc(O)cc2)sc2cc(O)ccc12	yes

# evaluate next
*Q* Say whether `Clc1cc(Cl)c(OCC#CI)cc1Cl` shows morphology score of 0.4 or more.
*A* yes

====

tested on: Caco-2; experiment: cell viability relative to DMSO; higher = less toxic; conditions: 72 h; 10 nM
Overview of reported cell viability across a group of molecules:
The reply should be a number in %, with the unit left off.

See these solved cases before continuing.
CCCCn1c(=O)c2[nH]c(C34CC5CC(CC3C5)C4)nc2n(CCCO)c1=O 102
CCNC(=O)NS(=O)(=O)c1sc(CC(C)C)cc1-c1ccc(Cn2c(-c3ccccc3)nc(OC)c2C=O)cc1 97.5
CC(=O)N[C@@H](CSSC[C@H](NC(C)=O)C(=O)O)C(=O)O 96.1

Pending molecule:
*Q* Report cell viability, nothing else, for this molecule: `CC(C)(O)c1ccn2c(-c3ccc(F)c(-c4ccc(F)cc4C#N)c3)cnc2c1F`
*A* 96

====

Listed here are molecules together with their documented cell viability.
tested on: U2OS; test: cell viability relative to DMSO; higher = less toxic; conditions: 72 h; 10000 nM
Numbers only here, please. The scale is %.

molecule	cell viability (%)
C=C[C@@]1(C)CC(=O)[C@]2(O)[C@@]3(C)[C@@H](O)CCC(C)(C)[C@@H]3[C@H](O)[C@H](OC(C)=O)[C@@]2(C)O1 [colforsin]	96.7
CN1CCN(C(c2ccccc2)c2ccccc2)CC1 [cyclizine]	97.5
CC(C)(O)c1ccn2c(-c3ccc(F)c(-c4ccc(F)cc4C#N)c3)cnc2c1F [TP-003]	99.4

*Q* Provide measured cell viability value, entry: Cc1c(-c2cnccn2)ssc1=S [oltipraz]
*A* 104

*Q* Give cell viability for the following molecule: Cc1ccc(-c2nc3ccc(C)cn3c2CC(=O)N(C)C)cc1 [ZOLPIDEM]
*A* 96.2

*Q* In one line, give reported cell viability of the entry Cc1cc(C)cc(OCC2CNC(=O)O2)c1 (stereo not given) [metaxalone] .
*A* 98.8

*Q* Return the recorded cell viability value; entry: CC[C@@]1(O)C(=O)OCc2c1cc1n(c2=O)Cc2cc3cc(O)ccc3nc2-1 [10-hydroxycamptothecin]
*A* 1.7

====

Recorded cell viability, one value per entry.
system: Caco-2; assay: cell viability relative to DMSO; higher = less toxic; conditions: 72 h; 10000 nM
Remember to follow the number with its unit.

compound	reported.measurement
Nc1nc(N)nc(-c2cc(Cl)ccc2Cl)n1	108%
COc1ccc(CCNCC(O)COc2cccc(C)c2)cc1OC (centres undefined)	104%
CON	100%

Attention now shifts to the item below.
*Q* Find the measured cell viability of `O=C(COP(=O)(O)O)[C@@H](O)[C@H](O)[C@H](O)COP(=O)(O)O` and report it.
*A* 93.5%

====

test system: Calu-3; assay: relative viability EC50 (midpoint between 100% and the lowest measured viability); higher = less toxic; details: 72 h
property.name: relative viability EC50

These recorded examples may help you get a feel for the data.
molecule	relative viability EC50
COc1ccc(-c2cc3nccn3c(Nc3ncccc3C(N)=O)n2)cc1OC [BAY-61-3606]	> 10 µM
CCCCCCCCCC(=O)OC1(c2ccc(Cl)cc2)CCN(CCCC(=O)c2ccc(F)cc2)CC1 [haloperidol-decanoate]	> 10 µM
O=P1(NCCCl)OCCCN1CCCl (stereo not drawn) [ifosfamide]	> 10 µM
COc1ccc(C2CNC(=O)NC2)cc1O[C@H]1C[C@@H]2CC[C@H]1C2 [atizoram]	> 10 µM
N#Cc1cn([C@@H]2O[C@H](CO)[C@@H](O)[C@H]2O)c2ncnc(N)c12 [toyocamycin]	0.0244 µM

*Q* Please report relative viability EC50 with Calu-3 for item CC[C@H](CO)Nc1nc(NCc2ccc(-c3ccccn3)cc2)c2ncn(C(C)C)c2n1 [CR8-(R)] .
*A* 0.184 µM

*Q* Write down measured relative viability EC50 (Calu-3) for this molecule. `CC(C)N(CCCNC(=O)Nc1ccc(C(C)(C)C)cc1)C[C@H]1O[C@@H](n2ccc3c(N)ncnc32)[C@H](O)[C@@H]1O`
*A* > 10 µM

*Q* Jot down relative viability EC50 (Calu-3) of `COc1nccc(-c2c(-c3ccc(F)cc3)ncn2[C@H]2CC[C@H](O)CC2)n1` .
*A* > 10 µM
